Recorded values, source patent US11912703B2.

- subject-of-test: UniProt Q9NR96
- measurement-notes: TLR9 inhibition reporter assay (HEK-Blue SEAP)
- measurement-conditions: read-out: TLR9 IC50; HEK-Blue cells overexpressing human TLR9, ODN2006 5 nM stimulation, SEAP reporter
# label = bin(measured IC50), where bins are b0: < 2 µM; b1: ≥ 2 µM and < 10 µM; b2: ≥ 10 µM

Cc1c(-c2[nH]c3cnc(N4CCC(NC5CCOCC5)CC4)c(F)c3c2C(C)C)cn2ncnc2c1C ... b0

With those in mind, consider the next compound.
Band assignment needed for Cc1cc(-c2[nH]c3cnc(C4CCC(NCC(C)(C)O)CC4)c(F)c3c2C(C)C)cn2ncnc12 (stereo not drawn) [Example 49] please.
b1

* * *

- subject-of-test: human TLR9 (Homo sapiens (Human))
- measurement-notes: TLR9 inhibition reporter assay (HEK-Blue SEAP)
- measurement-conditions: read-out: TLR9 IC50; HEK-Blue cells overexpressing human TLR9; ODN2006 5 nM stimulation; SEAP reporter
observable: pIC50
One number for each entry, as −log10 of the molar value.

Below, 6 compounds whose answers are already recorded.
Cc1cc(-c2[nH]c3cnc(N4CCC(NC5CCOCC5)CC4)c(F)c3c2C(C)C)cn2ncnc12 [Example 220] ... 5.34
Cc1c(-c2[nH]c3cnc(N4CCN(C5CCC5)C[C@H]4C)c(F)c3c2C(C)C)cn2ncnc2c1C [Example 458] ... 4.77
Cc1c(-c2[nH]c3cnc(N4CCN(C(C)C)C[C@H]4C)c(F)c3c2C(C)C)cn2ncnc2c1C [Example 461] ... 5.05
COc1cc(-c2[nH]c3cnc(C4CCC(N5CC6(COC6)C5)CC4)c(F)c3c2C(C)C)cn2ncnc12 (stereo not shown) [Example 226] ... 5.89
Cc1c(N2CCC(NC(C)C)CC2)ncc2[nH]c(-c3cc(C)c4ncnn4c3)c(C(C)C)c12 [Example 236] ... 6.03
CNC(=O)CN1CCN(c2ncc3[nH]c(-c4cn5ncnc5c(C)c4C)c(C(C)C)c3c2F)[C@H](C)C1 [Example 465] ... 4.32

Please find the next compound below.
API: value(readout=pIC50, system=human TLR9 (Homo sapiens (Human))) for record COc1cc(-c2[nH]c3cnc(C4CCC(NC5COC5)CC4)c(F)c3c2C(C)C)cn2ncnc12 (stereo not shown) [Example 224]
6.17

* * *

- subject-of-test: human TLR9 (Homo sapiens (Human), UniProt Q9NR96)
- Sequence (Q9NR96 26-1032): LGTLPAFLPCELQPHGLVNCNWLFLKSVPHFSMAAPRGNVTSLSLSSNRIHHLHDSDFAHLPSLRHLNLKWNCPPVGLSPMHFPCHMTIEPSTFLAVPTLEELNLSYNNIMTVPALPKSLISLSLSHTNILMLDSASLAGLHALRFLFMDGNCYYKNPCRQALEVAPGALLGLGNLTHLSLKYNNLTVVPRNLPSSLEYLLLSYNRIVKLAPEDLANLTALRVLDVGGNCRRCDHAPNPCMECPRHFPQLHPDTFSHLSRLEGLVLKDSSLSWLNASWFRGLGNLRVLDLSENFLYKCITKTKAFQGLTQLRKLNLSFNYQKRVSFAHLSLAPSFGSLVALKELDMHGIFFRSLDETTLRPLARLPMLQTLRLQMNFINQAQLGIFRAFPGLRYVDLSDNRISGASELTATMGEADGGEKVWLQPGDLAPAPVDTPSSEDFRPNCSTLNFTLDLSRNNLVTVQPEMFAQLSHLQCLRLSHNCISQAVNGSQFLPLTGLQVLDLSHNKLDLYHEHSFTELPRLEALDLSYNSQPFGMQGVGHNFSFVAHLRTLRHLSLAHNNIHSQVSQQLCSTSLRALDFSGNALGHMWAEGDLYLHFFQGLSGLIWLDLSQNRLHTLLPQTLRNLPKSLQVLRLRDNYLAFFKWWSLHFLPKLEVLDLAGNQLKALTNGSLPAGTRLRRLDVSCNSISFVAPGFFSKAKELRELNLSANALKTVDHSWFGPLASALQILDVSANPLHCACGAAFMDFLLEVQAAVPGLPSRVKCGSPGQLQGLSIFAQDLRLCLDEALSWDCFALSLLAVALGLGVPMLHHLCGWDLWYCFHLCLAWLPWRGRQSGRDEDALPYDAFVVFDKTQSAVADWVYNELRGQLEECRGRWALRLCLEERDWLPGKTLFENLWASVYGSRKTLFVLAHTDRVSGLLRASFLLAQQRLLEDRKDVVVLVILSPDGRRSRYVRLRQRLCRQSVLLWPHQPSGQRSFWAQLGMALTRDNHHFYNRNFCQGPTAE
- measurement-notes: TLR9 inhibition reporter assay (HEK-Blue SEAP);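 further: SEAP driven by IFN-β minimal promoter carrying five NF-κB and AP-1 sites, 22 h at 37 °C, compounds 0.05 nM–50 µM, inhibition scaled between agonist-plus-DMSO and reference-inhibitor wells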
- measurement-conditions: read-out: TLR9 IC50; HEK-Blue cells overexpressing human TLR9; ODN2006 5 nM stimulation; SEAP reporter
observable: log10 of IC50 (log10 of the value in µM)
log10 IC50, µM

Below, 3 molecules whose answers are already recorded.
Cc1c(-c2[nH]c3cnc(N4CCN(C)C[C@H]4C)c(F)c3c2C(C)C)cn2ncnc2c1C ... 1.04
Cc1c(-c2[nH]c3cnc(N4CCN(C5CCN(C(C)C)CC5)C[C@H]4C)c(F)c3c2C(C)C)cn2ncnc2c1C ... 0.29
Cc1c(-c2[nH]c3cnc(N4CCN(CC(=O)N5CCOCC5)C[C@H]4C)c(F)c3c2C(C)C)cn2ncnc2c1C ... 1.68

Kindly give each listed record's log10 of IC50.
1. Cc1c(-c2[nH]c3cnc(N4CCN(CC#N)C[C@H]4C)c(F)c3c2C(C)C)cn2ncnc2c1C
2. COc1cc(-c2[nH]c3cnc(C4CCC(NC5COC5)CC4)c(F)c3c2C(C)C)cn2ncnc12 (stereo not shown) [Example 223]
3. CCN(C)C1CCN(c2ncc3[nH]c(-c4cc(C)c5ncnn5c4)c(C(C)C)c3c2C)CC1

[1.23, 0.05, 0.34]

Given the molecule COc1cc(-c2[nH]c3cnc(C4CCC(NCC5(C)COC5)CC4)c(F)c3c2C(C)C)cn2ncnc12 (stereo not shown) , what is its reported log10 of IC50?
0.67
